# Experiment: Human PK study, first-in-human Phase I, single IV infusion
# Assay type: in vivo
# Assay setup: human, plasma, iv
Measured metric: Tmax

>>> experimental_result("CN1CCN(c2ccc(Nc3ncc4cc5n(c4n3)C3(CCCCC3)CNC5=O)nc2)CC1 [G1T28, trilaciclib]")
"15 to 28.2 min"
